Listed here: items and their measured Minimal inhibitory concentration(MIC), C. krusei K. 11655.
Test system: Candida krusei K. 11655
assay protocol: In vitro antifungal activity, microbroth dilution MIC
Assay type: cell-based
test parameters: RPMI-1640, 35° C., 4 to 48 hours, no growth observed
API: value field is a number in µg/mL; no unit string.

- compound: "FC(=C(c1cccc(F)c1)C(F)(F)F)N1CCN(c2ccc(OCC3COC(Cn4ccnc4)(c4ccc(F)cc4F)O3)cc2)CC1 (mixture of isomers) [Ex. 147]"
  test value: 0.39

# ---- query compound ----
**Q:** # lookup: Minimal inhibitory concentration(MIC), C. krusei K. 11655 of FC(=C(c1ccc(Cl)cc1)C(F)(F)F)N1CCN(c2ccc(OCC3COC(Cn4ccnc4)(c4ccc(Cl)cc4Cl)O3)cc2)CC1 (mixture of isomers) [Ex. 134]
**A:** 1.56

* * *

Listed here: items and their measured Minimal inhibitory concentration(MIC), Cry. neoformans B. 42419.
System: Cryptococcus neoformans B. 42419
assay protocol: In vitro antifungal activity, microbroth dilution MIC
Format: cell-based
test parameters: RPMI-1640, 35° C., 4 to 48 hours, no growth observed
API: value field is a number in µg/mL; no unit string.

Some solved entries appear below for comparison.
- compound: "FC(=Cc1cccc(Cl)c1)Oc1ccc(OCC2COC(Cn3ccnc3)(c3ccc(Cl)cc3Cl)O2)cc1 (mixture of isomers) [Ex. 91]"
  test value: 1.56
- compound: "Cc1ccc(C(=C(F)Oc2ccc(OCC3COC(Cn4ccnc4)(c4ccc(F)cc4F)O3)cc2)C(F)(F)F)cc1C (mixture of isomers) [Ex. 110]"
  test value: 3.13
- compound: "CC(C)(C)c1ccc(C(=C(F)Oc2ccc(OCC3COC(Cn4ccnc4)(c4ccc(F)cc4F)O3)cc2)C(F)(F)F)cc1 (mixture of isomers) [Ex. 109]"
  test value: 3.13

**Q:** Param readout = Minimal inhibitory concentration(MIC), Cry. neoformans B. 42419; param system = Cryptococcus neoformans B. 42419; param query = CCc1ccc(C(=C(F)N2CCN(c3ccc(OCC4COC(Cn5ccnc5)(c5ccc(Cl)cc5Cl)O4)cc3)CC2)C(F)(F)F)cc1 (mixture of isomers) [Ex. 127] ; response: value
**A:** 0.78

**Q:** Same lookup for FC(Oc1ccc(OCC2COC(Cn3cncn3)(c3ccc(Cl)cc3Cl)O2)cc1)=C(c1ccc(F)cc1)C(F)(F)F (mixture of isomers) [Ex. 123] , please.
**A:** 1.56

**Q:** Same lookup for COc1ccc(C(=C(F)Oc2ccc(OCC3COC(Cn4ccnc4)(c4ccc(Cl)cc4Cl)O3)cc2)C(F)(F)F)cc1 (mixture of isomers) [Ex. 98] , please.
**A:** 6.25

**Q:** Same lookup for COc1ccc(C(=C(F)Oc2ccc(OCC3COC(Cn4cncn4)(c4ccc(Cl)cc4Cl)O3)cc2)C(F)(F)F)cc1 (mixture of isomers) [Ex. 121] , please.
**A:** 1.56

**Q:** Same lookup for Cc1cccc(C(=C(F)N2CCN(c3ccc(OCC4COC(Cn5ccnc5)(c5ccc(Cl)cc5Cl)O4)cc3)CC2)C(F)(F)F)c1 (mixture of isomers) [Ex. 125] , please.
**A:** 3.13

**Q:** Same lookup for CCc1ccc(C(=C(F)Oc2ccc(OCC3COC(Cn4ccnc4)(c4ccc(Cl)cc4Cl)O3)cc2)C(F)(F)F)cc1 (mixture of isomers) [Ex. 95] , please.
**A:** 6.25

**Q:** Same lookup for FC(=C(c1ccc2c(c1)OCO2)C(F)(F)F)N1CCN(c2ccc(OCC3COC(Cn4ccnc4)(c4ccc(Cl)cc4Cl)O3)cc2)CC1 (mixture of isomers) [Ex. 132] , please.
**A:** 0.78

* * *

Listed here: items and their measured Minimal inhibitory concentration (MIC).
Tested on: Candida albicans C1-2
assay protocol: In vitro antifungal activity, microbroth dilution MIC
Format: cell-based
test parameters: C. albicans C1-2, RPMI-1640, 35° C., 4 to 48 hours
API: value field is a number in mg/L; no unit string.

- compound: "COc1ccc(C=C(F)OCC2COC(Cn3ccnc3)(c3ccc(Cl)cc3Cl)O2)cc1 (stereo not shown) [Ex. 9]"
  target or system: "Candida albicans C1-2"
  measurement type: "Minimal inhibitory concentration (MIC)"
  test value: 25.0
- compound: "FC(OCC1COC(Cn2ccnc2)(c2ccc(F)cc2F)O1)=C(c1cccs1)C(F)(F)F (mixture of isomers) [Ex. 68]"
  target or system: "Candida albicans C1-2"
  measurement type: "Minimal inhibitory concentration (MIC)"
  test value: 12.5

# ---- query compound ----
**Q:** Param readout = Minimal inhibitory concentration (MIC); param system = Candida albicans C1-2; param query = FC(OCC1COC(Cn2ccnc2)(c2ccc(Cl)cc2Cl)O1)=C(c1cc(Cl)cc(Cl)c1)C(F)(F)F (mixture of isomers) [Ex. 34] ; response: value
**A:** 6.25

* * *

System: Candida tropicalis A. 13803
assay protocol: In vitro antifungal activity, microbroth dilution MIC
Type: cell-based
test parameters: RPMI-1640, 35° C., 4 to 48 hours, no growth observed
Excerpt: […]
measurement type: Minimal inhibitory concentration(MIC), C. tropicalis A. 13803

- molecule: "CCc1ccc(C(=C(F)Oc2ccc(OCC3COC(Cn4ccnc4)(c4ccc(F)cc4F)O3)cc2)C(F)(F)F)cc1 (mixture of isomers) [Ex. 108]"
  test value: ">100 µg/mL"
- molecule: "FC(=C(c1ccc2c(c1)OCO2)C(F)(F)F)N1CCN(c2ccc(OCC3COC(Cn4ccnc4)(c4ccc(F)cc4F)O3)cc2)CC1 (mixture of isomers) [Ex. 145]"
  test value: ">100 µg/mL"
- molecule: "FC(=C(c1ccccc1)C(F)(F)F)N1CCN(c2ccc(OCC3COC(Cn4ccnc4)(c4ccc(Cl)cc4Cl)O3)cc2)CC1 (mixture of isomers) [Ex. 124]"
  test value: ">100 µg/mL"

**Q:** # lookup: Minimal inhibitory concentration(MIC), C. tropicalis A. 13803 of COc1ccc(C=C(F)Oc2ccc(OCC3COC(Cn4cncn4)(c4ccc(Cl)cc4Cl)O3)cc2)cc1 (mixture of isomers) [Ex. 118]
**A:** 100 µg/mL

* * *

Tested on: Cryptococcus neoformans B. 42419
assay protocol: In vitro antifungal activity, microbroth dilution MIC
Type: cell-based
test parameters: RPMI-1640, 35° C., 4 to 48 hours, no growth observed
measurement type: Minimal inhibitory concentration(MIC), Cry. neoformans B. 42419 (µg/mL)
API: value field is a number in µg/mL; no unit string.

Some solved entries appear below for comparison.
- molecule: "Cc1cccc(C(=C(F)OCC2COC(Cn3cncn3)(c3ccc(Cl)cc3Cl)O2)C(F)(F)F)c1 (mixture of isomers)"
  test value: 1.56
- molecule: "FC(=C(c1cccc(Cl)c1)C(F)(F)F)N1CCN(c2ccc(OCC3COC(Cn4ccnc4)(c4ccc(Cl)cc4Cl)O3)cc2)CC1 (mixture of isomers)"
  test value: 0.39
- molecule: "FC(Oc1ccc(OCC2COC(Cn3ccnc3)(c3ccc(Cl)cc3Cl)O2)cc1)=C(c1cccc(C(F)(F)F)c1)C(F)(F)F (mixture of isomers)"
  test value: 3.13
- molecule: "Cc1ccc(C(=C(F)OCC2COC(Cn3cncn3)(c3ccc(Cl)cc3Cl)O2)C(F)(F)F)cc1C (mixture of isomers)"
  test value: 3.13

# ---- query molecule ----
**Q:** # lookup: Minimal inhibitory concentration(MIC), Cry. neoformans B. 42419 of COc1ccc(C=C(F)Oc2ccc(OCC3COC(Cn4ccnc4)(c4ccc(F)cc4F)O3)cc2)cc1 (mixture of isomers)
**A:** 12.5

* * *

System: Candida albicans IFO. 1385
assay protocol: In vitro antifungal activity, microbroth dilution MIC
Type: cell-based
test parameters: C. albicans IFO. 1385, RPMI-1640, 35° C., 4 to 48 hours
measurement type: Minimal inhibitory concentration (MIC)

- compound: "COc1ccc(C(=C(F)OCC2COC(Cn3ccnc3)(c3ccc(F)cc3F)O2)C(F)(F)F)cc1 (mixture of isomers)"
  Minimal inhibitory concentration (MIC): "0.78 mg/L"
- compound: "Cc1cc(C)c(C=C(F)OCC2COC(Cn3ccnc3)(c3ccc(F)cc3F)O2)cc1C (mixture of isomers)"
  Minimal inhibitory concentration (MIC): "0.78 mg/L"
- compound: "Cc1cccc(C(=C(F)OCC2COC(Cn3ccnc3)(c3ccc(F)cc3F)O2)C(F)(F)F)c1 (mixture of isomers)"
  Minimal inhibitory concentration (MIC): "0.78 mg/L"

**Q:** # lookup: Minimal inhibitory concentration (MIC) of COc1cccc(C=C(F)OCC2COC(Cn3ccnc3)(c3ccc(Cl)cc3Cl)O2)c1 (stereo not shown)
**A:** 1.56 mg/L

**Q:** Same lookup for Cc1cccc(C(=C(F)OCC2COC(Cn3ccnc3)(c3ccc(Cl)cc3Cl)O2)C(F)(F)F)c1 (stereo not shown) , please.
**A:** 0.78 mg/L

**Q:** Same lookup for Cc1ccc(C(=C(F)OCC2COC(Cn3ccnc3)(c3ccc(Cl)cc3Cl)O2)C(F)(F)F)cc1C (stereo not shown) , please.
**A:** 0.78 mg/L
